Assay: amyloid nucleation score (Sup35N fusion, yeast selection) (log enrichment); library NNK2; higher = more nucleation; inactive = no reads after selection;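 further: zero at mode of non-aggregating sequences after 7 days selection at 30°C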
readout kind: amyloid nucleation score

CQMYYFYFNLLMWDMA	inactive
NDLESMYSEGFPLLNTAHK	inactive
PFSNMLASAFNFILITCSDL	inactive

====

Assay: amyloid nucleation score (Sup35N fusion, yeast selection) (log enrichment); library NNK1; higher = more nucleation; inactive = no reads after selection
Reported amyloid nucleation score values follow for various substances
Note: the reply should be a number with no unit written.

Task: Given LPHYNMLSPRIIRTLVVERF , respond with its amyloid nucleation score.
Result: 0.694

Task: Return the recorded amyloid nucleation score value; entry: ELNDVMRSGSKG
Result: 0.992

Task: Specify amyloid nucleation score for VFIIRRDLCWRTSFCLQQEL and stop.
Result: 0.965

Task: Determine its reported amyloid nucleation score: VLKHCWVGIFAQW
Result: 9.01

Data origin: the supplement of paper PMC12042874
